# Assay Target: UniProtKB Q5L478
# Sequence (Q5L478 as listed by the source): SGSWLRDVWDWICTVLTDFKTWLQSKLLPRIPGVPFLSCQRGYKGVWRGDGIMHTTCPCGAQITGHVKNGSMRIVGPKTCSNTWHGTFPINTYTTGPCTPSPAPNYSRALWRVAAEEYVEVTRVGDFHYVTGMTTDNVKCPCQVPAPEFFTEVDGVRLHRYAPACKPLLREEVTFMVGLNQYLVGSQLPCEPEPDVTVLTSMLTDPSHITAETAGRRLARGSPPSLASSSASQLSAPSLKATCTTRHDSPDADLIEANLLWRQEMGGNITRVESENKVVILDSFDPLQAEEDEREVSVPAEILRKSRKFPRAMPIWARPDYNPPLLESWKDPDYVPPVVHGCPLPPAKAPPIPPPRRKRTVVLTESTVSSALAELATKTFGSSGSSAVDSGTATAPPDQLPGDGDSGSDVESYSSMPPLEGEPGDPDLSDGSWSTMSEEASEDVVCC
# Protocol Details: Inhibition of HCV GT2b NS5A assessed as suppression of replicon RNA level by real-time PCR analysis
# Test Context: Hepatitis C virus subtype 2b
Result Type: log10(EC90) (log10 of the value in µM)
Scale: decimal log of EC90, EC90 in µM.

Challenge: Which log10(EC90) reading was recorded for the molecule COC(=O)N[C@H](C(=O)N1CCC[C@H]1c1ncc(-c2ccc3c(c2)OCn2c-3c(-c3ccccc3)c3cc(-c4cnc([C@@H]5CCCN5C(=O)[C@@H](NC(=O)OC)C(C)C)[nH]4)ccc32)[nH]1)C(C)C ?
Response given: -0.69

Challenge: Which log10(EC90) reading was recorded for the molecule CCOc1cccc(C2Oc3cc(-c4cnc([C@@H]5C[C@@H](F)CN5C(=O)[C@@H](NC(=O)OC)C(C)C)[nH]4)cc(F)c3-c3cc4cc(-c5cnc([C@@H]6C[C@@H](F)CN6C(=O)[C@@H](NC(=O)OC)C(C)C)[nH]5)ccc4n32)c1 (some centres undefined) ?
Response given: -1.16

Challenge: Which log10(EC90) reading was recorded for the molecule COC(=O)N[C@H](C(=O)N1C[C@H](F)C[C@H]1c1ncc(-c2cc(F)c3c(c2)OC(c2ccc(OC(F)(F)F)cc2)n2c-3cc3cc(-c4cnc([C@@H]5C[C@@H](F)CN5C(=O)[C@@H](NC(=O)OC)C(C)C)[nH]4)ccc32)[nH]1)C(C)C (some centres undefined) ?
Response given: -1.46

Challenge: Which log10(EC90) reading was recorded for the molecule COC(=O)N[C@H](C(=O)N1CCC[C@H]1c1ncc(-c2ccc3c(c2)OC(c2cc(OC)cc(OC)c2)n2c-3cc3cc(-c4cnc([C@@H]5CCCN5C(=O)[C@@H](NC(=O)OC)C(C)C)[nH]4)ccc32)[nH]1)C(C)C (some centres undefined) ?
Response given: -1.96

Challenge: Which log10(EC90) reading was recorded for the molecule COC(=O)N[C@H](C(=O)N1CCC[C@H]1c1ncc(-c2ccc3c(c2)OCn2c-3cc3cc(-c4cnc([C@@H]5CCCN5C(=O)[C@@H](NC(=O)OC)C(C)C)[nH]4)c(F)cc32)[nH]1)C(C)C ?
Response given: -0.82

Challenge: Which log10(EC90) reading was recorded for the molecule COC(=O)N[C@H](C(=O)N1C[C@H](F)C[C@H]1c1ncc(-c2cc(F)c3c(c2)OC(c2ccccc2)n2c-3cc3cc(-c4cnc([C@@H]5C[C@@H](F)CN5C(=O)[C@@H](NC(=O)OC)C(C)C)[nH]4)ccc32)[nH]1)C(C)C (mixture of isomers) ?
Response given: -1.14

Challenge: Which log10(EC90) reading was recorded for the molecule COC(=O)N[C@H](C(=O)N1CCC[C@H]1c1ncc(-c2ccc3c(c2)c(F)c2n3C(c3ccccc3)Oc3cc(-c4cnc([C@@H]5C[C@@H](F)CN5C(=O)[C@@H](NC(=O)OC)C(C)C)[nH]4)ccc3-2)[nH]1)C(C)C (some centres undefined) ?
Response given: -1.48

Challenge: Which log10(EC90) reading was recorded for the molecule COC(=O)N[C@H](C(=O)N1CCC[C@H]1c1ncc(-c2cc(F)c3c(c2)OC(c2ccc(OC)cc2)n2c-3cc3cc(-c4cnc([C@@H]5CCCN5C(=O)[C@@H](NC(=O)OC)C(C)C)[nH]4)ccc32)[nH]1)C(C)C (some centres undefined) ?
Response given: -2.30

Challenge: Which log10(EC90) reading was recorded for the molecule COC(=O)N[C@H](C(=O)N1CCC[C@H]1c1ncc(-c2ccc3c(c2)OCn2c-3cc3cc(-c4cnc([C@@H]5CCCN5C(=O)[C@@H](NC(=O)OC)C(C)C)[nH]4)ccc32)[nH]1)C(C)C ?
Response given: -1.12
